molecular target: Beta-3 Adrenergic Receptor (Homo sapiens); construct: expressed in transfected cells; host or cells: CHO-K1; assay: Homogeneous Time-Resolved Fluorescence (HTRF) cAMP antagonist assay; format: cell-based; conditions: Beta-3 Adrenergic Receptor IC50 Values, table of A compounds; CHO-K1 cells stably expressing recombinant receptor, isoproterenol at EC90
Sequence (P13945 whole entry, species assumed): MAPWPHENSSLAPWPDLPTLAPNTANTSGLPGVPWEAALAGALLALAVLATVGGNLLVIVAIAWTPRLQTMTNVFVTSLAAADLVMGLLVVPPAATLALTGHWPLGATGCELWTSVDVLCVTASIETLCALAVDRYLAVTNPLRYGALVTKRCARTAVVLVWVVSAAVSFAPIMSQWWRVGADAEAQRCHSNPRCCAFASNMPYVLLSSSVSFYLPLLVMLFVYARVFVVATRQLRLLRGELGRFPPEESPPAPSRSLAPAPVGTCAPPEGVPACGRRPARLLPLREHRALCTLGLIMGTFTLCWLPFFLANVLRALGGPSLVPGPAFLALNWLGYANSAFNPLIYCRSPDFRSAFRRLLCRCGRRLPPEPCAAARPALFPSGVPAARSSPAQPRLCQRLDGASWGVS
Reported Endpoint: IC50 (nM)
Quick note: give the figure in nM, leave out the unit.

Which IC50 is reported for this molecule? "O=S(=O)(c1cccc(OC[C@@H](O)CN[C@H]2COC3(CCN(S(=O)(=O)c4cnc5cc[nH]c5c4)CC3)C2)c1)C1CC1"
7

====

biological target: Beta-3 Adrenergic Receptor (Homo sapiens); construct: expressed in transfected cells; host or cells: CHO-K1; experiment: Homogeneous Time-Resolved Fluorescence (HTRF) cAMP antagonist assay; format: cell-based; conditions: Beta-3 Adrenergic Receptor IC50 Values, table of B compounds; CHO-K1 cells, isoproterenol at EC90
Reported Endpoint: IC50 (nM)
Quick note: give the figure in nM, leave out the unit.

CN1CCOc2ncc(S(=O)(=O)N3CCC4(CC3)C[C@@H](NC[C@H](O)COc3cccc(S(=O)(=O)N[C@@H]5CCC[C@@H]5O)c3)CO4)cc21; 472

Switching to the query record.
Which IC50 is reported for this compound? "CNS(=O)(=O)c1cccc(OC[C@@H](O)CN[C@H]2COC3(CCN(S(=O)(=O)c4cncc(-c5ccc(CN)cc5)c4)CC3)C2)c1"
25.4
